# Lookup of reported Ki keyed by entry
Biological target: JAK3 (Homo sapiens, UniProt P52333)
Sequence (P52333 1-1124): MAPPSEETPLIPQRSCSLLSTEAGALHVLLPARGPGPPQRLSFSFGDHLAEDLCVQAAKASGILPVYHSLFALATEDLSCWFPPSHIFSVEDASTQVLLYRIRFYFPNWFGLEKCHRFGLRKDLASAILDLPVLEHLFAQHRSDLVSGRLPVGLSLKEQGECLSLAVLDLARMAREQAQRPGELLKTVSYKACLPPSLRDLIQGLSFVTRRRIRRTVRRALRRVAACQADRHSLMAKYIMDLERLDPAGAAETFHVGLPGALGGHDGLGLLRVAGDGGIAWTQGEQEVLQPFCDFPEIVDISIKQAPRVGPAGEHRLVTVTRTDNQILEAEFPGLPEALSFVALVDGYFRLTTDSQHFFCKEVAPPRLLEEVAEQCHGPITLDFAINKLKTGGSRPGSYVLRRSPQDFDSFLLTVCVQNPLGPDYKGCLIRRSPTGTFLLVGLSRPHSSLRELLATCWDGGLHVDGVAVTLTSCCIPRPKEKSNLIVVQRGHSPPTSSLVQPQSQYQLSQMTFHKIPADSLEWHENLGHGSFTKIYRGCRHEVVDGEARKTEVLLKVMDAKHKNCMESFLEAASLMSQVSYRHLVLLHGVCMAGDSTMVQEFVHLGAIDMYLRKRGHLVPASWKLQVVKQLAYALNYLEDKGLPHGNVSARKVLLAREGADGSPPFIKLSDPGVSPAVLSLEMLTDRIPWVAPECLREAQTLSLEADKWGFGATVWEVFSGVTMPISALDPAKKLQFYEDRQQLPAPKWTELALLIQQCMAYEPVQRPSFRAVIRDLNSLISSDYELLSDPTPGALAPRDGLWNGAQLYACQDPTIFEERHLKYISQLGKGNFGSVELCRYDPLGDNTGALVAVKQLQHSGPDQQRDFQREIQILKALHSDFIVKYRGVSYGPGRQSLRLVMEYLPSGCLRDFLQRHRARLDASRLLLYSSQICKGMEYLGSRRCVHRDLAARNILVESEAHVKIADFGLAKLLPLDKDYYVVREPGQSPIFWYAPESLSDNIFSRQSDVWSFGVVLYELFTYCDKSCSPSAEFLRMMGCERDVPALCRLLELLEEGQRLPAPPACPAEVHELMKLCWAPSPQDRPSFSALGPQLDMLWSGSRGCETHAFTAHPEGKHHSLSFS
Test: JAK3 inhibition assay (radiometric 33P filter assay)
Assay type: biochemical
Conditions: 1 μM poly(Glu)4Tyr, 5 μM ATP, 1 nM JAK3, 25° C.; read-out: JAK3 inhibition data (Ki)
Value Kind: Ki

> print(dat)
                          compound.structure    data.value
 1  CCOC(=O)N1CCN(c2ccc(Nc3nc(N)n(-c4cc(NC)ncn4)n3)cc2)CC1       < 50 nM
 2  CC(=O)N1[C@H](C)CN(c2cc(-n3nc(Nc4ccc(NC(=O)OCC(C)(C)C)cc4)nc3N)ncn2)C[C@@H]1C       < 50 nM
 3  CCCOC(=O)N1CCN(c2ccc(Nc3nc(N)n(-c4ccnc(N5CCCN(C(=O)OC)CC5)c4)n3)cc2)CC1  50 to 500 nM
 4  CC(=O)N1[C@H](C)CN(c2cc(-n3nc(Nc4ccc(NC(=O)NC(C)(C)C)cc4)nc3N)ccn2)C[C@@H]1C       < 50 nM
 5  CC(=O)N1[C@H](C)CN(c2cc(-n3nc(Nc4ccc(NC(=O)CCC(C)C)cc4)nc3N)ccn2)C[C@@H]1C       < 50 nM
 6  CC(=O)CC(=O)N1CCCN(c2cc(-n3nc(Nc4ccc(N5CCOCC5)cc4)nc3N)ncn2)CC1       < 50 nM
 7  CC(C)(C)OC(=O)Nc1ccc(Nc2nc(N)n(-c3cc(N4CCCN(C(=O)CC#N)CC4)ncn3)n2)cc1       < 50 nM
 8  CC(=O)N1[C@H](C)CN(c2cc(-n3nc(Nc4ccc(N5CCOCC5)cc4)nc3N)ncn2)C[C@@H]1C       < 50 nM
 9  CCCOC(=O)N1CCN(c2ccc(Nc3nc(N)n(-c4ccnc(N5CCCN(S(=O)(=O)CC)CC5)c4)n3)cc2)CC1  50 to 500 nM
10  CC(=O)N1CCCN(c2cc(-n3nc(Nc4ccc(N5CCN(C(=O)OC(C)(C)C)CC5)cc4)nc3N)ncn2)CC1       < 50 nM
11  CC(=O)N1CCCN(c2cc(-n3nc(Nc4ccc(N(C)C(=O)OC(C)C)cc4)nc3N)ncn2)CC1       < 50 nM
12  CC(=O)N1CCCN(c2cc(-n3nc(Nc4ccc(NC(=O)Oc5ccc(C)cc5)cc4)nc3N)ncn2)CC1       < 50 nM
13  CC(=O)N1CCCN(c2cc(-n3nc(Nc4ccc(NC(=O)OC(C)C)cc4)nc3N)ncn2)CC1       < 50 nM
14  CCCCOC(=O)Nc1ccc(Nc2nc(N)n(-c3ccnc(N4CCCN(C(C)=O)CC4)c3)n2)cc1  50 to 500 nM
